Target: Fuc(a1-2)[GalNAc(a1-3)]Gal(b1-3)GlcNAc(b1-3)GalNAc
Test: glycan array binding signal (z-score within array); higher = stronger binding
Details: glycan notation: IUPAC condensed, linker removed
Only a selection was taken, and the strongest signals are over-represented in it overall.
Property: glycan array binding signal (z-score)

[
  {
    "Binder": "AT1G73650(15) (Arabidopsis thaliana), F4HRY1 (protein) MGTVLDSHFLALTAIVTVIYQFIFFVITALFKFDQVTDFAGSTNFVILAVLTLVLKASWHFRQIVLTLLVVVWGLRLGIFLLMETRILQWGEDRRFDEQRGNIVRLIIFWTLQAVWVWTVSLPLTLVNASDGGGSLKPADVIGWTMETWVFGFLIEAAADQQKLSFKNSPENRGKWCDVGVWKYSRHPNYFGEMETLLWWGIFVAASPVLEGAEYLVIFGPLFLTLLLLFVSGIPLLEASADKKHGNSGAYRSYKKTTSPLILFPRGVYGNLPGWFKTVFLFEFPFYSRNLPQEGRLQNSKEKEVKDD",
    "Property": "glycan array binding signal (z-score)",
    "Val": 0.226
  }
]
